In this section we review reported self-cleavage kobs at 10000 uM GlcN6P values for a set of variants.
B1: glmS ribozyme (parent)
chain: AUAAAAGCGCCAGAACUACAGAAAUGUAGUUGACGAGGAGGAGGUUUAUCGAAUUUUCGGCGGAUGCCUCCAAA

- Variants of: B1
- assay_details: self-cleavage kobs at 10000 uM GlcN6P; higher = faster cleavage; RNA array
- condition_description: with glucosamine-6-phosphate
Fewer inactive variants are shown than the library holds.

// query self-cleavage kobs at 10000 uM GlcN6P value for entry A12G G13C A33U G63U < 1e-05 s⁻¹

Continue with G51U G63C < 1e-05 s⁻¹
